Molecular target: recombinant human serotonin receptor 5-HT2A (Homo sapiens)
Construct: expressed in transfected cells; method B: loaded with Ca2+ dye
Sequence (P28223 whole entry): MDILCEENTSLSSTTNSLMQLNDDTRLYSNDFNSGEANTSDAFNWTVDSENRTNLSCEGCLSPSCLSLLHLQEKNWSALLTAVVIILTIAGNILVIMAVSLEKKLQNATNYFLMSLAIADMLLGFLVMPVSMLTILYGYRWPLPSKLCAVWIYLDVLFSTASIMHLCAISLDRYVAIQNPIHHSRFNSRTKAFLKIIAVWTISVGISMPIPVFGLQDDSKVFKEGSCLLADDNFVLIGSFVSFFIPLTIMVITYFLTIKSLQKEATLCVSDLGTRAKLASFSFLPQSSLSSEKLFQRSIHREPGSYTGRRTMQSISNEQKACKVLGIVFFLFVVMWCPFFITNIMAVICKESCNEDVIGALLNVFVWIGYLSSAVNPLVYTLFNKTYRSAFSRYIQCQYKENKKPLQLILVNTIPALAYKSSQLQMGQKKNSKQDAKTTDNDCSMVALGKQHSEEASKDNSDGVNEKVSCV
Assay: 5-HT2A antagonist Ca2+ assay in CHO-K1 cells (method A aequorin luminescence / method B FLIPR fluorescence)
Format: cell-based
Details: antagonist mode vs EC80 of reference agonist, method A or B, read-out: 5HT2A IC50
pIC50: −log10 of the molar value.
Overview of reported pIC50 across a group of compounds:
observed_property: pIC50

>>> observed_measurement("Fc1ccc(OC2CCN(CC3CCc4ccccc43)CC2)cc1 (stereo not shown)")
8.40
>>> observed_measurement("O=C1c2cccnc2CN1CCN1CCC(Oc2ccc(F)cc2)CC1")
8.00
>>> observed_measurement("Fc1cccc2c1C(CN1CCC(Oc3ccncc3)CC1)CC2 (stereo not shown)")
5.75
>>> observed_measurement("Cc1ccc(N2CCN(CC(O)COC3CCCCC3)CC2)cc1 (stereo not shown)")
7.70
>>> observed_measurement("Fc1ccc(O[C@@H]2CCN(CC3CCc4ccncc43)C2)cc1 (stereo partly shown)")
5.23
>>> observed_measurement("c1ccc2c(c1)CCC1(CCN(CC3CCc4cnccc43)CC1)O2 (stereo not shown)")
6.13
>>> observed_measurement("c1ccc2c(c1)CCC1(CCN(CC3Cc4ccncc4C3)CC1)O2 (stereo not shown)")
5.73
>>> observed_measurement("Fc1ccc(OC2CCN(CCC3CCc4ncccc43)CC2)cc1 (stereo not shown)")
6.92

Data provenance is patent US11186564B2.
